Data provenance is patent US20030086952A1.

Measured Content (by mass) of molecule in emulsion by item
Assay: Production of concentrated Yucca shidegera saponin emulsions in water (content reached)
Type: physicochemical
Conditions: Yucca shidegera saponin emulsion in water; mass fraction

C=C(C)[C@H]1CC=C(C)CC1	.909
O=CC=Cc1ccccc1	.899
COc1cc(C=O)ccc1O	.566
C=C(C)C1CC=C(C)CC1 (single isomer, unassigned; (+)) [(+) limonene]	.690

Next up:
Input line: Which Content (by mass) of molecule in emulsion is listed for O=C(OCc1ccccc1)c1ccccc1 [benzyl benzoate] ?
Output line: .534

----------
Measured Ratio of saponin to emulsified molecule (by mass) by item
Assay: Production of concentrated Yucca shidegera saponin emulsions in water (content reached)
Format: physicochemical
Settings: Yucca shidegera saponin emulsion in water
Description: The concentrated emulsions readily re-disperse upon dilution in water to working concentrations of interest. The final concentration of saponin with respect to the organic molecule is easily obtainable at 1:50 or 1:100 w/w, or even less. The shelf life of the concentrated emulsions, either at room temperature (about 25° C.) or at refrigerator temperature (about 4° C.) is at least 1 year, although separation of an emulsion, once stably formed, has not been observed. […]
Marks after values point to notes of the source that are not given here.

Examples from the recorded data:
COc1cc(C=O)ccc1O [vanillin]	1/34
O=C(OCc1ccccc1)c1ccccc1 [benzyl benzoate]	1/55
C=C(C)C1CC=C(C)CC1 (single isomer, unassigned; (+)) [(+) limonene]	1/18*
C=C(C)[C@H]1CC=C(C)CC1 [d-limonene, D-limonene]	1/78

Next up:
Input line: Which Ratio of saponin to emulsified molecule (by mass) is listed for O=CC=Cc1ccccc1 [cinnamaldehyde] ?
Output line: 1/50
